Test protocol: Caco-2 Permeability Assay
Format: in vitro ADME
Run parameters: human, Caco-2, test compound 3 μM
Measured property: Papp at 2 h, 3 µM (×10⁻⁶ cm/s)

1. CC(C)Nc1cc(-n2ncc3cc(C#N)cnc32)ncc1-n1cc(CCC(C)(C)O)nn1
2. CCCn1cc(-c2cnc(-n3ncc4cc(Cl)cnc43)cc2NC(C)C)nn1
Q: Which of the two gives a bigger number for Papp at 2 h, 3 µM: 1 or 2 ? Indicate your choice by writing its label.
A: 2

====

Test protocol: Caco-2 Permeability Assay
Format: in vitro ADME
Run parameters: human, Caco-2, test compound 3 μM
Measured property: Papp at 2 h, 3 µM

Some solved entries appear below for comparison.
| Compound | Papp at 2 h, 3 µM |
| --- | --- |
| CC(C)Nc1cc(-n2ncc3cc(C#N)cnc32)ncc1-c1cn(C2CCNCC2)nn1 [Example 195] | < 1.5 ×10⁻⁶ cm/s |
| CC(C)Nc1cc(-n2ncc3cc(C#N)cnc32)ncc1-c1cn(CC(=O)N2CCNCC2)nn1 [Example 192] | < 1.5 ×10⁻⁶ cm/s |
| CC(=O)N1CCC(n2cc(-c3cnc(-n4ncc5cc(C#N)cnc54)cc3NC(C)C)nn2)C1 (centres unmarked) [Example 157] | < 1.5 ×10⁻⁶ cm/s |
| CCNC1CCC(c2cn(-c3cnc(-n4ncc5cc(C#N)cnc54)cc3NC(C)C)nn2)CC1 (centres unmarked) [Example 356] | < 1.5 ×10⁻⁶ cm/s |

In the following, a different compound is considered.
Q: In one line, give reported Papp at 2 h, 3 µM of the entry CC(C)Nc1cc(-n2ncc3cc(C#N)cnc32)ncc1-c1cc(C2CCNCC2)no1 [Example 403] .
A: < 1.5 ×10⁻⁶ cm/s

====

Test protocol: Caco-2 Permeability Assay
Format: in vitro ADME
Run parameters: human, Caco-2, test compound 3 μM
Measured property: Papp at 2 h, 3 µM

# example entries with known answers
| Compound | Papp at 2 h, 3 µM |
| --- | --- |
| CC(C)Nc1cc(-n2ncc3cnc(N)nc32)ncc1-n1cc(CCC(C)(C)O)nn1 [Example 350] | 6.4 ×10⁻⁶ cm/s |
| CC(=O)N1CCC(n2cc(-c3cnc(-n4ncc5cc(C#N)cnc54)cc3NC(C)C)nn2)CC1 [Example 159] | < 1.5 ×10⁻⁶ cm/s |
| CC(C)Nc1cc(-n2ncc3cc(C#N)cnc32)ncc1-n1cc(C2CCNCC2)nn1 [Example 334] | < 1.5 ×10⁻⁶ cm/s |

Q: Please indicate Papp at 2 h, 3 µM recorded for CC(C)Nc1cc(-n2ncc3cc(C#N)c(N)nc32)ncc1-c1cn(CCCO)nn1 [Example 29]
A: < 1.5 ×10⁻⁶ cm/s

Q: Give reported Papp at 2 h, 3 µM value for CC(C)Nc1cc(-n2ncc3cc(C#N)cnc32)ncc1-c1cc([C@@H]2C[C@H](O)CCN2)no1 [Example 424]
A: < 1.5 ×10⁻⁶ cm/s

Q: // Input: CC(=O)N1C2CCC1CC(c1cc(-c3cnc(-n4ncc5cc(C#N)cnc54)cc3NC(C)C)on1)C2 (centres unmarked) [Example 419] . Output its Papp at 2 h, 3 µM only.
A: 19.9 ×10⁻⁶ cm/s

Q: Note Papp at 2 h, 3 µM for the compound shown: CC(C)Nc1cc(-n2ncc3cc(C#N)cnc32)ncc1-n1cc(C2CCN(C(C)C)CC2)nn1 [Example 337]
A: < 1.5 ×10⁻⁶ cm/s

Q: Could you please provide reported Papp at 2 h, 3 µM for CC(C)Nc1cc(-n2ncc3cc(C#N)cnc32)ncc1-n1cc(CC[C@](C)(O)CO)nn1 [Example 387] ? Thanks!
A: < 1.5 ×10⁻⁶ cm/s
